FYI, the data here is from PubChem BioAssay (NCATS).

protocolSummary: Viability qHTS for spleen associated tyrosine kinase inhibitor (SYKi) naive MV4-11 cells (AID 1963823); further: nearly all actives have a fitted effect of over 40% in size
measurementParameters: MV4-11 AML viability, CellTiter-Glo luminescence, 72 h; series mostly up to 45 µM
Procedure: Department of Medicine, Hematology/Oncology University Hospital Frankfurt, Germany. Trials have shown promising clinical activity of the selective SYK inhibitor entospletinib in patients with high expressing HOXA9/MEIS1 acute leukemias. […] 7; Detection; Luminescence; ViewLux plate reader (PerkinElmer). […] 1. Quantitative high-throughput screening (qHTS) of small molecule compounds was conducted on naive SYKi MV4-11 cell line. […] 7. Luminescence was measured on a ViewLux plate reader (PerkinElmer).
Results filed as inconclusive are left out. The source made the active and inactive calls. The call rests on the fitted dose curve; in most records, active means well fitted cell-killing curve with a large enough effect; inconclusive means small, poorly fitted or top-dose-only effect, or effect the other way; inactive means no such curve, though single readings can be large or run the other way.
Thanks in advance; please answer with one of these: active, inactive

1. C=C[C@H]1[C@H](O[C@@H]2O[C@H](CO[C@@H]3OC[C@](O)(CO)[C@H]3O)[C@@H](O)[C@H](O)[C@H]2O)OC=C2C(=O)OCC[C@H]21 : inactive
2. CCC(C)/C=C(C)/C=C/C1=CC2=C(Cl)C(=O)C(C)(OC(C)=O)C(=O)C2(O)C(OC)O1 (stereo not drawn) : active
3. Cc1ccc(C(=O)Nc2noc3ccccc23)cc1 : inactive
4. N=C(N)c1ccc2nc(-c3cc(CC(=O)N[C@@H](CC(=O)O)C(=O)O)cc(-c4cc(S(N)(=O)=O)ccc4O)c3O)[nH]c2c1 : inactive
5. Nc1ncnc2ccccc12 : inactive

Write down the call the test reported for this compound. Item: COC(=O)C1=C[C@@H](O)[C@@H](O)[C@H](O[C@@H]2O[C@H](COC(=O)/C=C/c3ccccc3)[C@@H](O)[C@H](O)[C@H]2O)C1
inactive

Query: recorded result category for FC(F)(F)c1ccccc1-n1ccnc1 in this test
inactive

Record lookup: outcome of this test for Cc1cc(N2CCOCC2)ccc1Nc1nc(NC2CCCCC2)c2[nH]cnc2n1 ?
active

Which result was noted for this compound in the test: Nc1nc2ncc(CNc3ccc(C(=O)N[C@@H](CCC(=O)O)C(=O)O)cc3)nc2c(=O)[nH]1
inactive

Given Cn1c2ccccc2c2c3c(c4c5ccccc5n(CCC#N)c4c21)CNC3=O , state the outcome it received in this test.
active

----------
protocolSummary: Quantitative highthroughput screen to assess conditional lethalithy of SEM cells grown in RPMI1640 with dialyzed fetal bovine serum (RPMI+ds) (AID 1963884); further: nearly all actives have a fitted effect of over 35% in size;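 on viability: 100% = DMSO control wells and 0% = empty wells without cells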
measurementParameters: SEM B-ALL cells, RPMI+dialyzed FBS, CellTiter-Glo viability, 48 h; series mostly up to 45.8 µM
Results filed as inconclusive are left out. Calls of active or inactive are those of the source. Calls follow the shape of the dose curve; as a rule, active = well fitted cell-killing curve with a large enough effect; inconclusive = small, poorly fitted or top-dose-only effect, or effect the other way; inactive = no such curve, though single readings can be large or run the other way.
One label from this list, please: Y for active, N for inactive

For orientation, consider the following solved cases.
1) CC(=O)SC[C@@H](C)C(=O)N1CCC[C@H]1C(=O)N[C@@H](Cc1ccccc1)C(=O)O : N
2) Cn1cncc1[C@@](N)(c1ccc(Cl)cc1)c1ccc2c(c1)c(-c1cccc(Cl)c1)cc(=O)n2C : Y
3) CC(=O)O[C@H]1C[C@@H]2CC[C@H]3[C@H]4C[C@H]([N+]5(C)CCCCC5)[C@@H](OC(C)=O)[C@@]4(C)CC[C@@H]3[C@@]2(C)C[C@H]1[N+]1(C)CCCCC1 : N

Assay outcome for CCn1c(=O)c2c(nc(C=Cc3ccc(OC)c(OC)c3)n2C)n(CC)c1=O : what was it?
N

What classification did CC[N+](CC)(CC)CCOc1cccc(OCC[N+](CC)(CC)CC)c1OCC[N+](CC)(CC)CC end up with in this test?
N

# outcome recorded in this test, key = CCCCCCCCCCCCCCCC(=O)OC[C@@H](NC(=O)C(Cl)Cl)[C@H](O)c1ccc([N+](=O)[O-])cc1
N

I'd appreciate the recorded outcome for CCCOc1ccc2nc(NC(=O)OC)[nH]c2c1 from this test.
Y

Kindly provide the recorded test outcome for the following compound: Cc1ccc(C(=O)N(CCCN)[C@@H](c2oc3cc(Cl)ccc3c(=O)c2Cc2ccccc2)C(C)C)cc1
N

----------
protocolSummary: Cellular viability qHTS for adrenocortical cancer (ACC) cell line NCI-H295R (AID 1963990); further: nearly all actives have a fitted effect of over 60% in size
measurementParameters: CellTiter-Glo ATP luminescence, 48 h; series mostly up to 46.1 µM
Inconclusive results are not listed. Calls of active or inactive are those of the source. The call rests on the fitted dose curve; in most records, active means well fitted cell-killing curve with a large enough effect; inconclusive means small, poorly fitted or top-dose-only effect; inactive means flat fitted curve, though single readings scatter.
Your response should consist of one outcome taken from 1 = active, 0 = inactive

Consider the worked cases shown below.
1. COc1ccc(CCN2CCN(CCCc3ccccc3)CC2)cc1OC : 0
2. CN(C(=O)CN(CCO)CC(=O)N(C)C(C)(C)Cc1ccccc1)C(C)(C)Cc1ccccc1 : 1
3. CC(=O)OCC(=O)[C@@]1(O)[C@H](OC(C)=O)C[C@H]2[C@@H]3CCC4=CC(=O)C=C[C@]4(C)[C@@]3(F)[C@@H](O)C[C@@]21C : 0
4. CCOC(=O)[C@H](CCc1ccccc1)N[C@@H](C)C(=O)N1C(=O)N(C)C[C@H]1C(=O)O : 0
5. Cc1[nH]c2ccccc2c1CCNCc1ccc(/C=C/C(=O)NO)cc1 : 1
6. O=S1(=O)OC(c2ccc(O)cc2)(c2ccc(O)cc2)c2ccccc21 : 0

Given Cc1cc2c(cc1S(N)(=O)=O)S(=O)(=O)CCC2 , state the outcome it received in this test.
0

What did the test return for Fc1ccc(Cl)cc1-c1nc(Nc2ccncc2)c2nccnc2n1 ?
0

Dear colleague, could you share the recorded outcome for CCOC(=O)c1cccc(N)c1 when you have a moment?
0

Dear colleague, could you share the recorded outcome for NC12CC3CC(CC(C3)C1)C2 when you have a moment?
0

Tell me the assay call for NS(=O)(=O)c1cc2c(cc1Cl)NC(C1CC3C=CC1C3)NS2(=O)=O (stereo not drawn) please.
0

Which outcome was entered for the compound COc1ccccc1C(=O)Nc1cc2c(cc1N1CCNC[C@H]1C)n(C)c(=O)n2C in this test?
0

State the result this test recorded for CCNC(=O)c1cc2c(-c3cc(OCCN4CCCC4)c(Cl)cc3Cl)nc(N)nc2s1 .
1

----------
protocolSummary: Viability qHTS for spleen associated tyrosine kinase inhibitor (SYKi) drug resistant MV4-11 cells (AID 1963824); further: nearly all actives have a fitted effect of over 35% in size
measurementParameters: SYKi-resistant MV4-11 viability, CellTiter-Glo, 72 h; series mostly up to 45 µM
Protocol: Department of Medicine, Hematology/Oncology University Hospital Frankfurt, Germany. Trials have shown promising clinical activity of the selective SYK inhibitor entospletinib in patients with high expressing HOXA9/MEIS1 acute leukemias. […] 7; Detection; Luminescence; ViewLux plate reader (PerkinElmer). […] 1. Quantitative high-throughput screening (qHTS) of small molecule compounds was conducted on drug resistant SYKi MV4-11 cell line. […] 7. Luminescence was measured on a ViewLux plate reader (PerkinElmer).
Records with an inconclusive call do not appear. Active and inactive are the calls of the source. Calls follow the shape of the dose curve; as a rule, active = well fitted cell-killing curve with a large enough effect; inconclusive = small, poorly fitted or top-dose-only effect, or effect the other way; inactive = no such curve, though single readings can be large or run the other way.
Give your call using only these classes: active, inactive

Here are 6 molecules together with their reported answers.
1) NC(CC1c2ccccc2Oc2ccccc21)(C(=O)O)C1CC1C(=O)O (configuration not stated) : inactive
2) COc1cc2nccc(Oc3ccc(NC(=O)C4(C(=O)Nc5ccc(F)cc5)CC4)cc3)c2cc1OC : active
3) CC(C)c1cc(C(=O)N2CC[C@@H](NC(=O)C3CC3)C2)n[nH]1 : inactive
4) NCCOCCOCCNC(=O)Cc1ccc(Nc2nc(NCc3ccc(F)cc3)nc(NCC3CCCCC3)n2)cc1 : active
5) COc1cc(/C=C/C(=O)O[C@@H]2C[C@](O)(C(=O)O)C[C@@H](O)[C@H]2O)ccc1O : inactive
6) CCOCc1nc2c(N)nc3ccccc3c2n1CC(C)(C)O : active

Moving on to the next molecule.
Write down the call the test reported for this molecule. Item: C=CCNC(N)=S
inactive

----------
protocolSummary: Viability qHTS for spleen associated tyrosine kinase inhibitor (SYKi) drug resistant MV4-11 cells (AID 1963824); further: nearly all actives have a fitted effect of over 35% in size
measurementParameters: SYKi-resistant MV4-11 viability, CellTiter-Glo, 72 h; series mostly up to 45 µM
Records with an inconclusive call do not appear. Active and inactive are the calls of the source. Calls come from the whole dose curve; as a rule, active = well fitted cell-killing curve with a large enough effect; inconclusive = small, poorly fitted or top-dose-only effect, or effect the other way; inactive = no such curve, though single readings can be large or run the other way.
Permitted responses: active, inactive

The following compounds have reported results that may help.
1) C=C1CC[C@@H](O)[C@]2(C)CC[C@H]3C(=C)C(=O)O[C@@H]3[C@@H]12 : active
2) CO[C@@H]1COCC[C@@H]1N[C@@H]1CC[C@@](C(=O)N2CCc3ncc(C(F)(F)F)cc3C2)(C(C)C)C1 : inactive
3) O=C(NCCN1CCC(n2c(=O)[nH]c3ccccc32)CC1)c1cc2cc(F)ccc2[nH]1 : active
4) CC1(O)CCC2C(C(=O)O)=COC(OC3OC(CO)C(O)C(O)C3OC(=O)/C=C/c3ccc(O)cc3)C21 (stereo unspecified) : inactive

How did this test come out for O=C(NOCCO)c1ccc2cncn2c1Nc1ccc(I)cc1F ?
active

For CCC[C@@]1(CCc2ccccc2)CC(O)=C([C@H](CC)c2cccc(NS(=O)(=O)c3ccc(C(F)(F)F)cn3)c2)C(=O)O1 , which call appears in the assay record?
active

Kindly provide the recorded test outcome for the following compound: CC1=CC(=O)CC(C)(C)C1CO[C@@H]1O[C@H](CO)[C@@H](O)[C@H](O)[C@H]1O (stereo partly specified)
inactive

What did this assay record as the result for CC(=O)O[C@H]1C[C@@]2(C)[C@@H](CC[C@H]3[C@@]4(C)C=CC(=O)[C@@H](C)[C@@H]4[C@H](OC(C)=O)C(=O)[C@@]32C)/C1=C(\CCC=C(C)C)C(=O)O ?
inactive
